This collection of values is drawn from patent US10239887B2.

experiment: intrinsic clearance, dog; format: in vitro ADME
property.label: CLint scaled (mL/min/kg)

- Cc1nnc2sc3c(NCc4ccc(C(C)(C)O)cc4)ncnc3c2c1C [Compound 76]: 35

* * *

# maps each entry to its Emax
Target: UniProtKB P08173
Sequence (P08173 1-479): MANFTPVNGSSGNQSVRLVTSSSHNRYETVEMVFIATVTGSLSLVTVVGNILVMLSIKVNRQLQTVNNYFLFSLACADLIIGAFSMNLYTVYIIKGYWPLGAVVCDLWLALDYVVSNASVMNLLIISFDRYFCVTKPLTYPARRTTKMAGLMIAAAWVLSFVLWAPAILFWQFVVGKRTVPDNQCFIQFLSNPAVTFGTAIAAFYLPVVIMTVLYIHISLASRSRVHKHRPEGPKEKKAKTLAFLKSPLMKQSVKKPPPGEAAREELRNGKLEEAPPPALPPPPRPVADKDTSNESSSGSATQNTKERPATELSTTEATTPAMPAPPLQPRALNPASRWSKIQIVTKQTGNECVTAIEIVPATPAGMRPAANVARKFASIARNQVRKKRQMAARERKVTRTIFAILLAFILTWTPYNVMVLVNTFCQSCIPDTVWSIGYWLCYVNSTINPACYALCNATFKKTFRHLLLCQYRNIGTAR
Assay: mAChR M4 cell-based functional assay (calcium flux), human M4
Where a name gives a salt, the structure may show the parent alone.
property.label: Emax

• Cc1cc(CNc2ncnc3c2sc2nnc(C)c(C)c23)cnc1C [Compound 148, hydrochloride] = 84%
• Cc1cc(C)c2c(n1)oc1c(NC3CN(c4cc(Cl)ncc4Cl)C3)ncnc12 [Compound 60, dihydrochloride] = 49.3%
• Cc1cc(C)c2c(n1)oc1c(NC3CC3)ncnc12 [Compound 62, hydrochloride] = 63.9%
• Cc1cc(C)c(CNc2ncnc3c2sc2nnc(C)c(C)c23)cn1 [Compound 147, hydrochloride] = 85.8%

* * *

molecular target: human mAChR M4 (Homo sapiens, UniProt P08173); experiment: mAChR M4 cell-based functional assay (calcium flux), human M4; conditions: Table 10; % ACh maximum at 30 μM
Structures can show the parent of a compound that is named as a salt.
# maps each entry to its Emax
property.label: Emax (%)

• Cc1nc2sc3c(N4CCC(F)(F)C4)ncnc3c2c(C)c1Cl [Compound 255, hydrochloride] = 73
• COc1ccc(CNc2ncnc3c2sc2nc(C)c(Cl)c(C)c23)cc1OC [Compound 267, hydrochloride] = 33.6
• Cc1nnc2sc3c(NC4CN(c5cc(Cl)ncc5Cl)C4)ncnc3c2c1C = 74.3
• COCC1CN(c2ncnc3c2sc2nc(C)cc(C)c23)C1 = 88.7
• Cc1nnc2sc3c(NCc4ccc(C(=O)NC5(C)CC5)cc4)ncnc3c2c1C = 78.3
• Cc1nnc2sc3c(N4CC[C@@H](N)C4)ncnc3c2c1C [Compound 99, dihydrochloride] = 54
• Cc1nc2sc3c(NCc4ccc(-n5ccnc5)cc4)ncnc3c2c(C)c1Cl [Compound 268, dihydrochloride] = 31.3
• Cc1nnc2sc3c(NCc4ccc(C(=O)N5CCOCC5)cc4)ncnc3c2c1C = 87.2

* * *

target: human mAChR M4 (Homo sapiens, UniProt P08173); assay: mAChR M4 cell-based functional assay (calcium flux), human M4; details: Human M4 EC50 (nM), Table 11; calcium flux, PAM activity with EC20 acetylcholine
# maps each entry to its EC50
property.label: EC50

• Cc1nnc2sc3c(N4CC[C@@H](C(C)(C)O)C4)ncnc3c2c1C [Compound 353] = 321 nM
• Cc1nnc2sc3c(NCc4ccc(-c5cccn5C)cc4)ncnc3c2c1C [Compound 341] = 1290 nM
• Cc1nnc2sc3c(NC4CN(c5ncc(Cl)cc5F)C4)ncnc3c2c1C [Compound 315] = 659 nM

* * *

# maps each entry to its EC50
molecular target: UniProtKB P08173; test: mAChR M4 cell-based functional assay (calcium flux), human M4; conditions: Human M4 EC50, CHO-K1 hM4-Gqi5 cells; calcium flux; increase in EC20 acetylcholine response
Structures can show the parent of a compound that is named as a salt.
property.label: EC50 (nM)

* Cc1cc(C)c2c(n1)oc1c(NC3CC3c3ccc(F)c(F)c3)ncnc12 (stereo not drawn) [Compound 61, hydrochloride] | 3380
* Cc1nnc2sc3c(NCc4ccc(-c5cccnc5F)cc4)ncnc3c2c1C [Compound 29] | 4050
* Cc1cc(C)c2c(n1)oc1c(NCc3cccc(C(C)(C)O)c3)ncnc12 [Compound 57] | 4270
* Cc1nnc2sc3c(N4CC(Oc5ccc(F)cc5)C4)ncnc3c2c1C [Compound 30] | 2610
* CCNc1ncnc2c1oc1nc(C)c(Cl)c(C)c12 [Compound 47, hydrochloride] | 1250
* Cc1nnc2oc3c(NC4CC(F)(F)C4)ncnc3c2c1C [Compound 72] | 1750
* Cc1nnc2sc3c(N4CC(Oc5ccccc5)C4)ncnc3c2c1C [Compound 33] | 4430
* Cc1nnc2sc3c(N4CC5CC5C4)ncnc3c2c1C (stereo not drawn) [Compound 10] | 21
* Cc1cc(C)c2c(n1)oc1c(NC3CCC3)ncnc12 [Compound 55, hydrochloride] | 1590

* * *

assay: fraction unbound in plasma, dog; format: in vitro ADME; details: read-out: Dog Fu (plasma)
property.label: fraction unbound

* Cc1nnc2sc3c(NCc4ccc(C(C)(C)O)cc4)ncnc3c2c1C [Compound 76] | 0.057

* * *

Molecular target: human mAChR M4 (Homo sapiens)
Sequence (P08173 1-479): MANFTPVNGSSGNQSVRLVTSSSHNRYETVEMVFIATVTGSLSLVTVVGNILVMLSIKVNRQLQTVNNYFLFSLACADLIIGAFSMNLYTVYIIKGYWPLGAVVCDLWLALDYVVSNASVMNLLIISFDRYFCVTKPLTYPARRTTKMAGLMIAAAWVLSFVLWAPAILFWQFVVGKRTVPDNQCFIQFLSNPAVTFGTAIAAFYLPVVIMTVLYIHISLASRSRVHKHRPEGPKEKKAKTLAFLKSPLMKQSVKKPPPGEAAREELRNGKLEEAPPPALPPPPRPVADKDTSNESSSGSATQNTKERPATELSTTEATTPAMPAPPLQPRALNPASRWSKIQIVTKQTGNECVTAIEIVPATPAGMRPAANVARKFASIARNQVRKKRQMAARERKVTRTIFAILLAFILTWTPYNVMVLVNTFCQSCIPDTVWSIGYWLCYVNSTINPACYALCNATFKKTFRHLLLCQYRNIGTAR
Assay: mAChR M4 cell-based functional assay (calcium flux), human M4
Details: Table 10; % ACh maximum at 30 μM
Structures can show the parent of a compound that is named as a salt.
# maps each entry to its Emax
property.label: Emax (%)

* Cc1nnc2sc3c(NCc4ccc(C(=O)N5CCC(F)(F)C5)cc4)ncnc3c2c1C | 91.8
* Cc1c(Cl)cnc2sc3c(N4CC(F)(F)C4)ncnc3c12 | 44
* Cc1nnc2sc3c(NCc4ccc(C(C)(O)C5CC5)cc4)ncnc3c2c1C (centres unmarked) | 61.3
* Cc1nc2sc3c(N4CCC(F)C4)ncnc3c2c(C)c1Cl (centres unmarked) [Compound 258, hydrochloride] | 64.9
* COc1nnc2sc3c(NCc4ccc(C(C)(C)O)cc4)ncnc3c2c1C | 86.7
* Cc1nnc2sc3c(NC4CN(C(=O)OC(C)(C)C)C4)ncnc3c2c1C | 70.5
* Cc1nnc2sc3c(NC4CC5(C4)CN(c4ncc(F)cc4Cl)C5)ncnc3c2c1C | 42.9
* Cc1ncc(CNc2ncnc3c2sc2ncc(Cl)c(C)c23)cn1 [Compound 238, dihydrochloride] | 61

* * *

# maps each entry to its Emax
molecular target: human mAChR M4 (Homo sapiens, UniProt P08173); assay: mAChR M4 cell-based functional assay (calcium flux), human M4
Where a name gives a salt, the structure may show the parent alone.
property.label: Emax (%)

• Cc1nnc2sc3c(N4CC5(CNC5)C4)ncnc3c2c1C [Compound 105] = 55.6
• Cc1nnc2sc3c(NCc4ccc(CN5CCOCC5)cc4)ncnc3c2c1C [Compound 108, hydrochloride] = 76.8
• Cc1cc(C)c2c(n1)oc1c(NC3CCC3)ncnc12 [Compound 55, hydrochloride] = 44.2

* * *

Target: human mAChR M4 (Homo sapiens)
Sequence (P08173 1-479): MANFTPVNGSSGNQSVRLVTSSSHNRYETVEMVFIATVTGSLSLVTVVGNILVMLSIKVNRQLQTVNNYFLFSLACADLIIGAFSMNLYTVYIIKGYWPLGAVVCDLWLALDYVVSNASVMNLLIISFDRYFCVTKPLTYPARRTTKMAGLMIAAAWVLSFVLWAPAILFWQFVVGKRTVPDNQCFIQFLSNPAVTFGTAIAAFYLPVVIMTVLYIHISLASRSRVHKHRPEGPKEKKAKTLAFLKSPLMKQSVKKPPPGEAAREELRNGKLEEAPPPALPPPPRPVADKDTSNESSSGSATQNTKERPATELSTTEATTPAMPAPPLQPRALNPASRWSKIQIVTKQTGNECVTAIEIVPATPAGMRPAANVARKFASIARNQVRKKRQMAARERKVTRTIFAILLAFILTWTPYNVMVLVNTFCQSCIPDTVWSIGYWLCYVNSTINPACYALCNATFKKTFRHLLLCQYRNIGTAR
Experiment: mAChR M4 cell-based functional assay (calcium flux), human M4
Settings: Human M4 EC50 (nM), Table 10; calcium flux, PAM activity with EC20 acetylcholine
Counter-ions that a name gives are not always drawn.
// map EC50 to label using bin 1 (below 400 nM), bin 2 (400 nM to below 1000 nM), bin 3 (1000 nM or more)

• Cc1cc(C)c2c(n1)sc1c(N3CC(c4ccncc4)C3)ncnc12 = bin 1
• Cc1nnc2sc3c(NC45CC(F)(C4)C5)ncnc3c2c1C = bin 2
• Cc1nnc2sc3c(NCc4ccc(C(=O)N[C@H](C)C(F)(F)F)cc4)ncnc3c2c1C = bin 1
• Cc1nnc2sc3c(NCc4ccc(C(C)(C)O)cc4Cl)ncnc3c2c1C = bin 2
• Cc1nc2sc3c(NC4CN(c5ccnc(C6(O)CCC6)c5)C4)ncnc3c2c(C)c1Cl = bin 3
• COc1nnc2sc3c(N4CCCC4)ncnc3c2c1C = bin 1
• Cc1nnc2sc3c(NCc4ccc(C(=O)NC5(C)CC5)cc4)ncnc3c2c1C = bin 1
• Cc1nnc2sc3c(NC4CC5(C4)CN(c4ncc(F)cc4Cl)C5)ncnc3c2c1C = bin 3
• Cc1nnc2sc3c(NC4CN(C(=O)OC(C)(C)C)C4)ncnc3c2c1C = bin 1
• Cc1cc(C)c2c(n1)oc1c(NC3CC3c3ccc(F)c(F)c3)ncnc12 (centres unmarked) [Compound 294, hydrochloride] = bin 3
• Cc1cc(C)c(CNc2ncnc3c2sc2nnc(C)c(C)c23)cn1 [Compound 147, hydrochloride] = bin 2
• CNC(=O)c1cc(CNc2ncnc3c2sc2nnc(C)c(C)c23)ccc1F = bin 1
• Cc1cc(C)c2c(n1)oc1c(NCc3ccc(S(C)(=O)=O)cc3)ncnc12 [Compound 292, hydrochloride] = bin 3
• Cc1nnc2sc3c(N4Cc5ccc(C(C)(C)O)cc5C4)ncnc3c2c1C = bin 3
• Cc1nnc2sc3c(NCc4ccc(C(=O)N5CCC(F)(F)C5)cc4)ncnc3c2c1C = bin 2
• Cc1nnc2sc3c(NCc4ccc(C(=O)N5CC6CC6C5)cc4)ncnc3c2c1C (centres unmarked) = bin 2
• Cc1nnc2sc3c(NCc4ccc(-c5ccccn5)cc4)ncnc3c2c1C [Compound 109, hydrochloride] = bin 2
• Cc1nnc2sc3c(NC4CC4c4ccc(F)c(F)c4)ncnc3c2c1C (centres unmarked) = bin 2
• Cc1nnc2sc3c(NCc4ccc(C(=O)NC(C)C)cc4)ncnc3c2c1C = bin 1
• Cc1cnc(N2CC3(CC(Nc4ncnc5c4sc4nnc(C)c(C)c45)C3)C2)nc1 = bin 3
• Cc1nnc2oc3c(NC4CC(F)(F)C4)ncnc3c2c1C = bin 3
• Cc1nnc2sc3c(NCc4ccc(S(F)(F)(F)(F)F)cc4)ncnc3c2c1C = bin 3
• Cc1nnc2sc3c(N4CC(C(N)=O)C4)ncnc3c2c1C = bin 3
• Cc1c(Cl)cnc2sc3c(N4CC5CC5C4)ncnc3c12 (centres unmarked) = bin 2
• Cc1c(Cl)cnc2sc3c(N4CC(c5ccncc5)C4)ncnc3c12 = bin 1
• Cc1nnc2sc3c(N4CCC(C(=O)Nc5ccc(C(F)(F)F)cc5)C4)ncnc3c2c1C (centres unmarked) = bin 3
• Cc1nnc2sc3c(NCc4ccc(F)c(C(=O)NC5CC5(C)C)c4)ncnc3c2c1C (centres unmarked) = bin 3
• Cc1cc(C)c2c(n1)sc1c(N3CCC3)ncnc12 = bin 1
• COc1ccc(C2CC2Nc2ncnc3c2sc2nnc(C)c(C)c23)cc1 (centres unmarked) = bin 1
• Cc1nnc2sc3c(NCc4ccc(-c5cccnc5F)cc4)ncnc3c2c1C = bin 2
• Cc1nnc2sc3c(NCc4ccc(C(=O)NC5CC5)cc4)ncnc3c2c1C = bin 1
• Cc1nnc2sc3c(NC4CC5(C4)CN(c4ncc(Cl)cc4F)C5)ncnc3c2c1C = bin 3
• Cc1nnc2sc3c(NCc4ccc(C(=O)NC5CCCCC5)cc4)ncnc3c2c1C = bin 1
